All figures here come from ChEMBL document CHEMBL1759940.

# Tested on: Mus musculus
# PROTOCOL_DETAILS: Anticonvulsant activity in Swiss mouse assessed as protection against subcutaneous pentylenetetrazol-induced seizures at 30 mg/kg, ip after 30 mins
# Format: functional, organism-based
# Parameters: dose 30 mg/kg
Activity calls are given as the source filed them. The rule behind the calls is not given here.
RECORDED_ENDPOINT: Activity

Known results for molecules:
STRUCTURE_STRING	ASSAY_VALUE
COc1ccc2c(c1)CCCc1n[nH]c(=O)n1-2	inactive
O=c1[nH]nc2n1-c1ccc(OCc3cccc(F)c3)cc1CCC2	inactive
CCCOc1ccc2c(c1)CCCc1n[nH]c(=O)n1-2	inactive
Cc1ccc(COc2ccc3c(c2)CCCc2n[nH]c(=O)n2-3)cc1	inactive
O=c1[nH]nc2n1-c1ccc(OCc3ccc(F)cc3)cc1CCC2	inactive

Now examine the next entry.
Activity in this record for `O=c1[nH]nc2n1-c1ccc(OCc3ccccc3F)cc1CCC2` : inactive
